ASSAY_PROTOCOL: chemical genetic growth profiling, strain panel (AID 1159580);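 also: tested at 20 µM; growth read once vehicle control cultures reached saturation at 30 °C; lower values mean less growth of the strain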
CONDITION_SET: S. cerevisiae deletion strains, growth OD, locus YNL128W, strain TEP1
About 2,000 (36%) of roughly 5,500 compounds were called active. About 18% were inconclusive and are not listed. Rule as the data show it: active = normalized growth mostly below about 0.91 (no sharp cut-off); inconclusive = no clear call, values can overlap the other calls; inactive = mostly above about 0.92. The list shows a part of the results.
Would you mind answering with one of these outcomes? Y = active, N = inactive

q: Short answer needed: outcome of this test for NC[C@H]1O[C@H](O[C@H]2[C@H](O)[C@@H](O[C@H]3O[C@H](CO)[C@@H](O)[C@H](N)[C@H]3O)[C@H](N)C[C@@H]2N)[C@H](N)C[C@@H]1O ?
a: N

q: What classification did COc1cc([N+](=O)[O-])ccc1N1CCCC1 end up with in this test?
a: N

q: Entry CNC(Cc1c[nH]c2ccccc12)C(=O)O (stereo not given) : call = ?
a: N

q: Give the logged outcome of this assay for the following molecule: OCCN1CCN(CCCN2c3ccccc3Sc3ccc(C(F)(F)F)cc32)CC1
a: N

q: Dear colleague, could you share the recorded outcome for CCOC([O-])=Nc1c[n+](N2CCOCC2)no1 when you have a moment?
a: N
